FYI, the data here is from patent US10562935B2.

Assay: Circular dichroism (CD) spectroscopy of linear and stapled peptides in water or 40% TFE/water (Example 3)
Assay type: physicochemical
Settings: λ = 222 nm; in water
Bridges are numbered along the chain shown (N, C = ends).
observed property: [0]222 mean residue ellipticity (deg cm^2 dmol^−1)
Answer format: numeric, deg cm^2 dmol^−1 implied, no suffix.

query: What does the record list as [0]222 mean residue ellipticity for Ac-(cyclo-5,9)-VSKL[KSQLE]KRKQN-NH2 (Ac-VSKLKSQLEKRKQN-NH2; lactam 5-9; SMILES CC(=O)N[C@H](C(=O)N[C@@H](CO)C(=O)N[C@@H](CCCCN)C(=O)N[C@@H](CC(C)C)C(=O)N[C@H]1CCCCNC(=O)CC[C@@H](C(=O)N[C@@H](CCCCN)C(=O)N[C@@H](CCCNC(=N)N)C(=O)N[C@@H](CCCCN)C(=O)N[C@@H](CCC(N)=O)C(=O)N[C@@H](CC(N)=O)C(N)=O)NC(=O)[C@H](CC(C)C)NC(=O)[C@H](CCC(N)=O)NC(=O)[C@H](CO)NC1=O)C(C)C) [Compound 154] ?
result: -9.74E+02
